- assay protocol: Pharmacokinetic study in rats (oral gavage and tail vein injection, plasma LC-MS/MS)
- Assay type: in vivo
- condition: rat, SD rats, Iv, 1 mg/kg
Entries and their measured AUC(0-t) follow.
quantity measured: AUC(0-t)

[[record]]
molecule = "Cc1nc(-c2nnn(C)c2CNC(=O)OCc2ccccc2)ccc1C#CC1(CC(=O)O)CC1 [compound 215]"
quantity_measured = "AUC(0-t)"
result = "1200 to 3000 ng·h/mL"

[[record]]
molecule = "CCC(F)(F)[C@@H](C)OC(=O)Nc1c(-c2ccc(C#CC3(CC(=O)O)CC3)c(C)n2)noc1C [compound 444]"
quantity_measured = "AUC(0-t)"
result = "1200 to 3000 ng·h/mL"

[[record]]
molecule = "CCCc1ccnc(NCc2c(-c3ccc(C#CC4(CC(=O)O)CC4)c(C)n3)nnn2C)n1 [compound 365]"
quantity_measured = "AUC(0-t)"
result = "1200 to 3000 ng·h/mL"


###

- assay protocol: Pharmacokinetic study in rats (oral gavage and tail vein injection, plasma LC-MS/MS)
- Format: in vivo
- condition: male, rat, SD rats, Po, 1 mg/kg, read-out: Cmax
- Description: Male SPF-grade SD rats (Beijing Vital River Laboratory Animal Technology Co., Ltd.) with a body weight range of 200 to 250 g were used. […] The concentration of compounds in plasma was detected by LC-MS/MS (AB SCIEX Qtrap4500). Data were analyzed using WinNonlin (version 5.2.1 Pharsight, Mountain View, CA) with a non-compartmental model to obtain PK parameters (including Cmax, C0, Tmax, AUClast, AUCinf, T1/2, etc.). […]
Entries and their measured Cmax follow.
quantity measured: Cmax

[[record]]
molecule = "CCC(F)(F)[C@@H](C)OC(=O)Nc1c(-c2ccc(C#C[C@@H]3CCC[C@H]3C(=O)O)c(C)n2)nnn1C (mixture of isomers)"
result = "0.8 to 5 µg/mL"

[[record]]
molecule = "Cc1nc(-c2nnn(C)c2NC(=O)O[C@H](C)c2ccccc2)ccc1C#C[C@@H]1C[C@H]1C(=O)O"
result = "0.8 to 5 µg/mL"

[[record]]
molecule = "Cc1nc(-c2nnn(C)c2COC(=O)N(C)CCC(C)(F)F)ccc1C#C[C@@H]1CCC[C@H]1C(=O)O (racemic)"
result = "0.2 to 0.8 µg/mL"

[[record]]
molecule = "Cc1nc(-c2nnn(C)c2CNc2nccc(C3CC(F)(F)C3)n2)ccc1C#CC1(CC(=O)O)CC1"
result = "0.2 to 0.8 µg/mL"

[[record]]
molecule = "CCCN(C)C(=O)OCc1c(-c2ccc(C#C[C@@H]3CCC[C@H]3C(=O)O)c(C)n2)nnn1C"
result = "0.2 to 0.8 µg/mL"

[[record]]
molecule = "CCOC1CC(C#Cc2ccc(-c3nnn(C)c3NC(=O)O[C@H](C)C(F)(F)CC)nc2C)(CC(=O)O)C1 (some centres unmarked)"
result = "0.2 to 0.8 µg/mL"

[[record]]
molecule = "CCC[C@@H](C)OC(=O)Nc1c(-c2ccc(C#C[C@@H]3C[C@H]3C(=O)O)c(C)n2)nnn1C (mixture of isomers)"
result = "0.8 to 5 µg/mL"

[[record]]
molecule = "Cc1nc(-c2nnn(C)c2NC(=O)O[C@H](C)C(F)(F)C(C)C)ccc1C#CC1(CC(=O)O)CC1"
result = "0.2 to 0.8 µg/mL"

[[record]]
molecule = "Cc1nc(-c2nnn(C)c2NC(=O)O[C@H](C)c2ccccc2)ccc1C#C[C@@H]1CC[C@H]1C(=O)O"
result = "0.8 to 5 µg/mL"

[[record]]
molecule = "Cc1nc(-c2nnn(C)c2NC(=O)O[C@H](C)CC(C)(F)F)ccc1C#CC1(CC(=O)O)CCC1"
result = "0.8 to 5 µg/mL"

[[record]]
molecule = "Cc1nc(-c2nnn(C)c2NC(=O)O[C@H](C)CC(C)(F)F)ccc1C#C[C@@H]1CC[C@H]1C(=O)O (mixture of isomers)"
result = "0.2 to 0.8 µg/mL"


###

- test target: LPAR1 receptor (Homo sapiens)
- Construct: expressed in transfected cells
- Sequence (Q92633 whole entry): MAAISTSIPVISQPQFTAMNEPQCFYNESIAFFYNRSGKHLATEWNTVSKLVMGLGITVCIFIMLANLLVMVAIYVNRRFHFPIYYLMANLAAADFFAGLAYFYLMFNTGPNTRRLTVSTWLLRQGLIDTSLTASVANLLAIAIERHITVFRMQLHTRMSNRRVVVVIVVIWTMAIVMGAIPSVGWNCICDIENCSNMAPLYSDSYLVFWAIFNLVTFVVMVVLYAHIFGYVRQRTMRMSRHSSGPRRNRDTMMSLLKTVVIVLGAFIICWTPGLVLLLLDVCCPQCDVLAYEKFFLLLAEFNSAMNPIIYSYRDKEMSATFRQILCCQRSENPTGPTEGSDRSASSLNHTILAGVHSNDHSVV
- assay protocol: LPAR1 in vitro biological activity evaluation 2: HTRF cAMP kit (LANCE Ultra cAMP Kit) assay in CHO stable transfected cell line expressing the LPAR1 receptor
- Format: cell-based
- condition: Table 2, read-out: LPAR1 inhibitory activity IC50
quantity measured: log10 IC50 (log10 of the value in nM)

[[record]]
molecule = "Cc1nc(-c2nnn(C)c2COC(=O)N(C)CCC(C)(F)F)ccc1C#C[C@@H]1CCC[C@H]1C(=O)O (single isomer, unassigned) [282-A]"
test_target = "LPAR1 receptor (Homo sapiens)"
numeric_readout = 1.94

[[record]]
molecule = "CCC[C@@H](C)OC(=O)Nc1c(-c2ccc(C#C[C@@H]3C[C@H]3C(=O)O)c(C)n2)nnn1C (mixture of isomers) [224-B]"
test_target = "LPAR1 receptor (Homo sapiens)"
numeric_readout = 2.10

[[record]]
molecule = "CCCCN(C)C(=O)OCc1c(-c2ccc(C#CC3(CC(=O)O)CC(OCC)C3)c(C)n2)nnn1C (centres unmarked) [compound 114]"
test_target = "LPAR1 receptor (Homo sapiens)"
numeric_readout = 0.96

[[record]]
molecule = "CCC(F)(F)[C@@H](C)OC(=O)Nc1c(-c2ccc(C#CC3(CC(=O)O)CC4(CC4)C3)c(Cl)n2)nnn1C [compound 503]"
test_target = "LPAR1 receptor (Homo sapiens)"
numeric_readout = 0.93

[[record]]
molecule = "CCCC[C@@H](C)OC(=O)Nc1c(-c2ccc(C#CC3(CC(=O)O)CC3)c(C)n2)nnn1C [compound 313]"
test_target = "LPAR1 receptor (Homo sapiens)"
numeric_readout = 2.19


###

- test target: hLPAR1 (human lysophosphatidic acid receptor 1, Accession No.: NM_001401.4) (Homo sapiens)
- assay protocol: cell-based
- condition: Table 1; FLIPR method, CHO-K1 cells overexpressing hLPAR1; read-out: LPAR1 inhibitory activity IC50
pIC50: −log10 of the molar value.
Entries and their measured pIC50 follow.
quantity measured: pIC50

[[record]]
compound = "CCC(F)(F)[C@@H](C)OC(=O)Nc1c(-c2ccc(C#C[C@@H]3CC[C@H]3C(=O)O)c(C)n2)nnn1C (mixture of isomers) [212-B]"
numeric_readout = 7.59

[[record]]
compound = "CCC(F)CN(C)C(=O)OCc1c(-c2ccc(C#CC3(CC(=O)O)CC3)c(C)n2)nnn1C (stereo not drawn) [compound 036]"
numeric_readout = 6.99

[[record]]
compound = "CCC(F)(F)[C@@H](C)OC(=O)Nc1c(-c2ccc(C#CC3(CC(=O)O)CC3)c(Cl)n2)nnn1C [compound 209]"
numeric_readout = 7.90

[[record]]
compound = "CCc1nc(-c2nnn(C)c2COC(=O)N(C)CCCCF)ccc1C#CC1(CC(=O)O)CC1 [compound 230]"
numeric_readout = 7.22

[[record]]
compound = "Cc1nc(-c2nnn(C)c2NC(=O)O[C@H](C)CC(C)(C)F)ccc1C#C[C@@H]1CCC[C@H]1C(=O)O (mixture of isomers) [244-B]"
numeric_readout = 7.72

[[record]]
compound = "Cc1nc(-c2nnn(C)c2NC(=O)OC(C)c2cc(F)cnc2Cl)ccc1C#CC1(CC(=O)O)CC1 (stereo not drawn) [compound 023]"
numeric_readout = 7.34

[[record]]
compound = "Cc1noc(-c2ccc(C#CC3(CNS(=O)(=O)O)CC3)c(F)c2)c1NC(=O)O[C@H](C)c1ccccc1Cl [compound 460]"
numeric_readout = 7.93

[[record]]
compound = "Cc1nc(-c2nnn(C)c2NC(=O)O[C@H](C)c2ccccc2Cl)ccc1C#CC1(CC(=O)O)CC1 [compound 013]"
numeric_readout = 8.59

[[record]]
compound = "Cc1nc(-c2nnn(C)c2NC(=O)OC(C)CC2CC2)ccc1C#CC1CCC1C(=O)O (single isomer, unassigned) [248-B]"
numeric_readout = 7.72

